Target: Vascular endothelial growth factor receptor 2 (Homo sapiens, UniProt P35968)
Sequence (P35968 whole entry): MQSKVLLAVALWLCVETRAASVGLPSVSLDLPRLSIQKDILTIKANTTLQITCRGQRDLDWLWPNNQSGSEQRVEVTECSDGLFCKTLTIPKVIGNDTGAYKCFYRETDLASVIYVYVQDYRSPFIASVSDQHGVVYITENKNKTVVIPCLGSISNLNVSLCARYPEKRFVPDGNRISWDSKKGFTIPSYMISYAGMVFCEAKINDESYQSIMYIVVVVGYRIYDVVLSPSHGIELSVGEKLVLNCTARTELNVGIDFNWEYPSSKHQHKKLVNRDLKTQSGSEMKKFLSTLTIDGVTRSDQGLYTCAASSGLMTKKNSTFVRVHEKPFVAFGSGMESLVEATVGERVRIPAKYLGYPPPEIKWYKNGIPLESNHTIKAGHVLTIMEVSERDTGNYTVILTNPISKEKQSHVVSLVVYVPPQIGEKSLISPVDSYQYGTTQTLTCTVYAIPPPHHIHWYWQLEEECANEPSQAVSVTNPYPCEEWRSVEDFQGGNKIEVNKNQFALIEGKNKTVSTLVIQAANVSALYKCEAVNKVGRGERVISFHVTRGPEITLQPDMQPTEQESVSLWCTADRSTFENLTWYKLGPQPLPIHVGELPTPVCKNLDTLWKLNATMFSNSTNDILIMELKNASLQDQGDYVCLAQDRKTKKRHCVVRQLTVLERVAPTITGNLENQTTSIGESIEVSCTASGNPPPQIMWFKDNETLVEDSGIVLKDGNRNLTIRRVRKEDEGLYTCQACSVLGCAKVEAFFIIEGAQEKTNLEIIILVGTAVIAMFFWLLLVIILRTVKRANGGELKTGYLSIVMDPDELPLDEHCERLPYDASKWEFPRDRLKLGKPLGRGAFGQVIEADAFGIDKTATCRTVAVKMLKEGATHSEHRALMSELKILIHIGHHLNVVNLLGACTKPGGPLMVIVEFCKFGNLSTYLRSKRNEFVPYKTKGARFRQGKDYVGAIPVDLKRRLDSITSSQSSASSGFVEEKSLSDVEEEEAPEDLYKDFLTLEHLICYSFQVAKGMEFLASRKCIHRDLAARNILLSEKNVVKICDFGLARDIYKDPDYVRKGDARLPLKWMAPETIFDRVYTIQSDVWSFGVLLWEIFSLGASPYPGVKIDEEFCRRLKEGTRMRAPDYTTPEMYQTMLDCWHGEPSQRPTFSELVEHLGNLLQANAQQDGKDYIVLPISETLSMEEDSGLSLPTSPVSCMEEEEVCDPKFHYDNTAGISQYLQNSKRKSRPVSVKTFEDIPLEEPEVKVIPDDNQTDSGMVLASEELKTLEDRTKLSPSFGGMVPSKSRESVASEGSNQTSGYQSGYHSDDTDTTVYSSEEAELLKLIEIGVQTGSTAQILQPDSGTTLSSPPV
Conditions: at 10 µM
Description: Inhibition of VEGFR2 (unknown origin) at 10 uM using TK substrate after 1 hr by HTRF assay relative to control
Think of 70% as a floor: if inhibition stands on it or above, it is Met; beneath it, Not met.

Query: # bool: inhibition of COc1ccc(-c2nc(Cl)cc(Nc3ccc(OCCN(C)C)cc3)n2)cc1 >= 70%
Response: Not met

Query: # bool: inhibition of CCN(CC)CCOc1ccc(Nc2cc(Cl)nc(-c3ccc(OC)cc3)n2)cc1 >= 70%
Response: Met

Query: # bool: inhibition of CCN(CC)CC(=O)Nc1ccc(Nc2nc(-c3ccc(OC)cc3)nc(Cl)c2-c2ccccc2)cc1 >= 70%
Response: Not met

Query: # bool: inhibition of COc1ccc(-c2nc(Cl)cc(Nc3ccc(NC(=O)CN(C)C)cc3)n2)cc1 >= 70%
Response: Not met

Query: # bool: inhibition of COc1ccc(-c2nc(Cl)cc(Nc3ccc(NC(=O)CN4CCCC4)cc3)n2)cc1 >= 70%
Response: Not met

Query: # bool: inhibition of COc1ccc(-c2nc(Cl)c(-c3ccccc3)c(Oc3ccc(OCCN4CCCC4)cc3)n2)cc1 >= 70%
Response: Met

Query: # bool: inhibition of COc1ccc(-c2nc(Cl)cc(Oc3ccc(OCCN4CCCC4)cc3)n2)cc1 >= 70%
Response: Not met

Query: # bool: inhibition of CCN(CC)CCOc1ccc(Nc2nc(-c3ccc(OC)cc3)nc(Cl)c2-c2ccccc2)cc1 >= 70%
Response: Met

Query: # bool: inhibition of COc1ccc(-c2nc(Cl)c(-c3ccccc3)c(Nc3ccc(OCCN4CCCC4)cc3)n2)cc1 >= 70%
Response: Not met

Query: # bool: inhibition of COc1ccc(-c2nc(Cl)c(-c3ccccc3)c(Oc3ccc(OCCN(C)C)cc3)n2)cc1 >= 70%
Response: Met

Query: # bool: inhibition of CCN(CC)CCOc1ccc(Oc2nc(-c3ccc(OC)cc3)nc(Cl)c2-c2ccccc2)cc1 >= 70%
Response: Not met

* * *

Exercise: for every item that follows, state its recorded IC50.
Tested on: HUVEC
Assay: Antiproliferative activity against HUVEC after 48 hrs by MTT assay
Type: functional, cell-based
Conditions: Homo sapiens
The reply should contain only the number, in µM.

Query: // returns reported IC50 for input COc1ccc(-c2nc(Cl)c(-c3ccccc3)c(Nc3ccc(OCCN(C)C)cc3)n2)cc1
Response: 14.2

Query: // returns reported IC50 for input CCN(CC)CCOc1ccc(Nc2nc(-c3ccc(O)cc3)nc(Cl)c2-c2ccccc2)cc1
Response: 8.81

Query: // returns reported IC50 for input CCN(CC)CCOc1ccc(Nc2nc(-c3ccc(OC)cc3)nc(Cl)c2-c2ccccc2)cc1
Response: 4.34

Query: // returns reported IC50 for input Oc1ccc(-c2nc(Cl)c(-c3ccccc3)c(Oc3ccc(OCCN4CCCC4)cc3)n2)cc1
Response: 4.57

Query: // returns reported IC50 for input COc1ccc(-c2nc(Cl)c(-c3ccccc3)c(Nc3ccc(NC(=O)CN(C)C)cc3)n2)cc1
Response: 10.3

Query: // returns reported IC50 for input CCN(CC)CC(=O)Nc1ccc(Nc2cc(Cl)nc(-c3ccc(OC)cc3)n2)cc1
Response: 15

Query: // returns reported IC50 for input CCN(CC)CCOc1ccc(Oc2nc(-c3ccc(OC)cc3)nc(Cl)c2-c2ccccc2)cc1
Response: 15.1

* * *

Exercise: for every item that follows, state its recorded pIC50.
pIC50: −log10 of the molar value.

Query: Query pIC50 on Vascular endothelial growth factor receptor 2 (Homo sapiens, UniProt P35968) for Oc1ccc(-c2nc(Cl)c(-c3ccccc3)c(Oc3ccc(OCCN4CCCC4)cc3)n2)cc1
Response: 7.07

Query: Query pIC50 on Vascular endothelial growth factor receptor 2 (Homo sapiens, UniProt P35968) for COc1ccc(-c2nc(Cl)cc(Nc3ccc(OCCN(C)C)cc3)n2)cc1
Response: < 6.00

Query: Query pIC50 on Vascular endothelial growth factor receptor 2 (Homo sapiens, UniProt P35968) for COc1ccc(-c2nc(Cl)c(-c3ccccc3)c(Nc3ccc(OCCN(C)C)cc3)n2)cc1
Response: < 6.00

Query: Query pIC50 on Vascular endothelial growth factor receptor 2 (Homo sapiens, UniProt P35968) for CCN(CC)CCOc1ccc(Oc2cc(Cl)nc(-c3ccc(OC)cc3)n2)cc1
Response: < 6.00

Query: Query pIC50 on Vascular endothelial growth factor receptor 2 (Homo sapiens, UniProt P35968) for CCN(CC)CCOc1ccc(Nc2cc(Cl)nc(-c3ccc(OC)cc3)n2)cc1
Response: 6.76

Query: Query pIC50 on Vascular endothelial growth factor receptor 2 (Homo sapiens, UniProt P35968) for COc1ccc(-c2nc(Cl)c(-c3ccccc3)c(Nc3ccc(NC(=O)CN(C)C)cc3)n2)cc1
Response: < 6.00

Query: Query pIC50 on Vascular endothelial growth factor receptor 2 (Homo sapiens, UniProt P35968) for COc1ccc(-c2nc(Cl)cc(Nc3ccc(NC(=O)CN(C)C)cc3)n2)cc1
Response: < 6.00

* * *

Biological target: Vascular endothelial growth factor receptor 2 (Homo sapiens)
Settings: at 10 µM
Exercise: for every item that follows, state its recorded inhibition.
The reply should contain only the number, in %.

Query: // returns reported inhibition for input CCN(CC)CCOc1ccc(Nc2nc(-c3ccc(O)cc3)nc(Cl)c2-c2ccccc2)cc1
Response: 76.9

Query: // returns reported inhibition for input COc1ccc(-c2nc(Cl)c(-c3ccccc3)c(Nc3ccc(NC(=O)CN(C)C)cc3)n2)cc1
Response: 50.8

Query: // returns reported inhibition for input COc1ccc(-c2nc(Cl)cc(Oc3ccc(OCCN(C)C)cc3)n2)cc1
Response: 61.2

Query: // returns reported inhibition for input CCN(CC)CCOc1ccc(Oc2cc(Cl)nc(-c3ccc(OC)cc3)n2)cc1
Response: 80

Query: // returns reported inhibition for input Oc1ccc(-c2nc(Cl)c(-c3ccccc3)c(Oc3ccc(OCCN4CCCC4)cc3)n2)cc1
Response: 91.1

Query: // returns reported inhibition for input COc1ccc(-c2nc(Cl)c(-c3ccccc3)c(Nc3ccc(NC(=O)CN4CCCC4)cc3)n2)cc1
Response: 87.3

Query: // returns reported inhibition for input COc1ccc(-c2nc(Cl)c(-c3ccccc3)c(Nc3ccc(OCCN(C)C)cc3)n2)cc1
Response: 50.9

Query: // returns reported inhibition for input CCN(CC)CC(=O)Nc1ccc(Nc2cc(Cl)nc(-c3ccc(OC)cc3)n2)cc1
Response: 44

Query: // returns reported inhibition for input COc1ccc(-c2nc(Cl)cc(Nc3ccc(OCCN4CCCC4)cc3)n2)cc1
Response: 51.9

* * *

Exercise: for every item that follows, state its recorded pIC50.
Target: Estrogen receptor (Homo sapiens, UniProt P03372)
Sequence (P03372 whole entry): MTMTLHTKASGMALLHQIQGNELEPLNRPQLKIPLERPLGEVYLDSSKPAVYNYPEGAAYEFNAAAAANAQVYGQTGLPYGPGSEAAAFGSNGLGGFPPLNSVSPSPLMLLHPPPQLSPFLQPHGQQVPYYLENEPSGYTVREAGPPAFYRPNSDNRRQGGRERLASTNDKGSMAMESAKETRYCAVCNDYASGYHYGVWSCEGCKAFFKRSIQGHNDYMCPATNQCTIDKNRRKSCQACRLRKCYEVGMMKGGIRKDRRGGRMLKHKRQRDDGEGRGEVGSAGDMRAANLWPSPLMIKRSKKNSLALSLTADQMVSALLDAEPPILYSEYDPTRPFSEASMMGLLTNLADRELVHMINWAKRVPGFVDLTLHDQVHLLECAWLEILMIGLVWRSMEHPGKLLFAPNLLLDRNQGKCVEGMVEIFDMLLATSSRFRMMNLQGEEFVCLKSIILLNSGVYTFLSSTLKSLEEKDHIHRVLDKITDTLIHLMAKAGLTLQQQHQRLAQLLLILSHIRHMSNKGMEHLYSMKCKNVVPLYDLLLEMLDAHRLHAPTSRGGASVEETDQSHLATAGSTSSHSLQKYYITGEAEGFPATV
Note on units: pIC50 is unitless, being -log10 of a concentration expressed in mol/L.

Query: // returns reported pIC50 for input CCN(CC)CCOc1ccc(Nc2cc(Cl)nc(-c3ccc(OC)cc3)n2)cc1
Response: 5.32

Query: // returns reported pIC50 for input Oc1ccc(-c2nc(Cl)c(-c3ccccc3)c(Oc3ccc(OCCN4CCCC4)cc3)n2)cc1
Response: 5.79

* * *

Tested on: HUVEC
Experiment: Antiproliferative activity against HUVEC after 48 hrs by MTT assay
Assay type: functional, cell-based
Conditions: Homo sapiens
pIC50: −log10 of the molar value.
Think of 5 as a floor: if pIC50 stands on it or above, it is class 1; beneath it, class 0.

Query: # bool: pIC50 of COc1ccc(-c2nc(Cl)c(-c3ccccc3)c(Nc3ccc(NC(=O)CN4CCCC4)cc3)n2)cc1 >= 5
Response: class 0

Query: # bool: pIC50 of CCN(CC)CCOc1ccc(Oc2cc(Cl)nc(-c3ccc(OC)cc3)n2)cc1 >= 5
Response: class 0

Query: # bool: pIC50 of COc1ccc(-c2nc(Cl)cc(Oc3ccc(OCCN(C)C)cc3)n2)cc1 >= 5
Response: class 0

Query: # bool: pIC50 of CCN(CC)CCNC(=O)c1c(C)[nH]c(/C=C2\C(=O)Nc3ccc(F)cc32)c1C [SUNITINIB] >= 5
Response: class 1

Query: # bool: pIC50 of COc1ccc(-c2nc(Cl)cc(Oc3ccc(OCCN4CCCC4)cc3)n2)cc1 >= 5
Response: class 0
